Values from patent US20070128217A1

System: antibodies in sera from SARS patients (sera 1a, 1b, 2, 6, 37, 62, London, SARS-yellow, SARS-green)
Type: binding, human
property-label: Binding of serum London to linear peptides of protein X4 of SARS-CoV Urbani
Give bare numbers.

Answered cases to consult:
TLIVFTSCELYHYQE | 0.8
QQELYSPLFLIVAAL | 0.8
LFLTLIVFTSCELYH | 0.6
LKEPCPSGTYEGNSP | 0.9
FACADGTRHTYQLRA | 0.8

Give one value of Binding of serum London to linear peptides of protein X4 of SARS-CoV Urbani per listed sequence.
1. LLKEPCPSGTYEGNS
2. MKIILFLTLIVFTSC
3. LVFLILCFTIKRKTE
4. YQLRARSVSPKLFIR
5. CADGTRHTYQLRARS

Response given:
1: 0.8; 2: 0.7; 3: 0.8; 4: 0.8; 5: 0.8
